# Measured Target: c-Src SH2
# Assay: SH2 binding enrichment of the phosphorylated peptide, bacterial display (enrichment ratio); higher = better substrate or ligand; peptides without Tyr show the background;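 further: peptide library displayed on the E. coli surface as eCPX fusions, selected cells deep-sequenced, score is each peptide's frequency after selection divided by its frequency in the input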
Outcome: 1.0 for SH2 binding enrichment of at least 0.5; 0.0 for anything lower.

// below: answered sequences
[in] Is reported SH2 binding enrichment greater than or equal to 0.5 here: FSAPNCCYRCG [PPP2CA_Y265_Y265C]
[out] 1.0

[in] Is reported SH2 binding enrichment greater than or equal to 0.5 here: HELYVYKCDEN [DOCK3_Y548]
[out] 1.0

[in] Is reported SH2 binding enrichment greater than or equal to 0.5 here: VTDGKYAFKPK [GTF2E2_Y137_I133T]
[out] 0.0

Others:
[in] Is reported SH2 binding enrichment greater than or equal to 0.5 here: CGTPDYIAPEI [PRKCG_Y521]
[out] 1.0

[in] Is reported SH2 binding enrichment greater than or equal to 0.5 here: LTQRTYMSENA [GPAA1_Y49]
[out] 0.0

[in] Is reported SH2 binding enrichment greater than or equal to 0.5 here: RILDVYIFLGP [GAA_Y340_G335R]
[out] 1.0

[in] Is reported SH2 binding enrichment greater than or equal to 0.5 here: CTTIHKNFMCN [TP53_Y234_Y234K_YF]
[out] 1.0

[in] Is reported SH2 binding enrichment greater than or equal to 0.5 here: DRKRQYELLKL [KIF4B_Y684]
[out] 1.0

[in] Is reported SH2 binding enrichment greater than or equal to 0.5 here: EDKFMYFEFPQ [PTEN_Y240]
[out] 1.0

[in] Is reported SH2 binding enrichment greater than or equal to 0.5 here: RDMNAYIRPSP [MMAA_Y207]
[out] 1.0

[in] Is reported SH2 binding enrichment greater than or equal to 0.5 here: SQSKGYRPKLF [SIPA1L3_Y1376_G1371S_YF]
[out] 1.0

[in] Is reported SH2 binding enrichment greater than or equal to 0.5 here: NVKGIYAVGDV [GSR_Y371]
[out] 1.0

[in] Is reported SH2 binding enrichment greater than or equal to 0.5 here: EPYELYCEMGS [CBL_Y371_Q367P]
[out] 1.0

[in] Is reported SH2 binding enrichment greater than or equal to 0.5 here: EGLKVYINGTL [ADGRD1_Y183_V184I]
[out] 0.0

[in] Is reported SH2 binding enrichment greater than or equal to 0.5 here: SLGKGYSVGGC [MC4R_Y35_D37V]
[out] 1.0

[in] Is reported SH2 binding enrichment greater than or equal to 0.5 here: DNLSNYVFQGQ [GRIN2A_Y978_N976S]
[out] 1.0

[in] Is reported SH2 binding enrichment greater than or equal to 0.5 here: GDEEDYFEIPG [EGFR_opt_F_2015]
[out] 1.0

[in] Is reported SH2 binding enrichment greater than or equal to 0.5 here: GFRVFYTPDSR [PTPRF_Y451_YF]
[out] 1.0

* * *

# Measured Target: Grb2 SH2 (UniProt P62993)
# Sequence (P62993 whole entry, looked up): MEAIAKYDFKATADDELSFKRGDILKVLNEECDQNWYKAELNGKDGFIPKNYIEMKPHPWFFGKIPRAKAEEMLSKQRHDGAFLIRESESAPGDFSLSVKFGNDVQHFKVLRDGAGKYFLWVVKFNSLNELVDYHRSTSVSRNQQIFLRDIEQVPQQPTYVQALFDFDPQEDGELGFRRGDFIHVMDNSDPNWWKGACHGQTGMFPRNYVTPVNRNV
# Assay: SH2 binding enrichment of the phosphorylated peptide, bacterial display (enrichment ratio); higher = better substrate or ligand; peptides without Tyr show the background
Readout Kind: SH2 binding enrichment
Give your answer as a number; write no unit.

Use these answered entries as a reference point.
Consider SISYDYCRVPM [BST2_Y8_T4I] . Its measured SH2 binding enrichment is 1.01

Consider LVPAWYIGFLC [KCNQ2_Y237_T234P] . Its measured SH2 binding enrichment is 0.968

Consider RHFTTYDTNGR [CLCA1_Y665_Y661H] . Its measured SH2 binding enrichment is 0.716

Consider KSVITYSPTTG [ITGB3BP_Y32] . Its measured SH2 binding enrichment is 0.91

Read the next record carefully.
Consider KNGSNYVVKGN [KIT_Y823_D820G] . Its measured SH2 binding enrichment is 0.837
